// data source = PubChem BioAssay AID1159580

Assign normalized growth to each entry below.
assay: chemical genetic growth profiling, strain panel (AID 1159580);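 also: tested at 20 µM; growth read once vehicle control cultures reached saturation at 30 °C; 1 = growth at the plate median or of vehicle wells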; conditions: S. cerevisiae deletion strains, growth OD, locus YJR066W, strain TOR1, stronger effect = lower value
About 2,000 (36%) of roughly 5,500 compounds were called active. Roughly 18% stayed inconclusive and do not appear here. Some of the results follow.

Reported normalized growth for `COc1cc(OC)c2c(=O)cc(-c3ccccc3)oc2c1` : what is it?
0.872 (inactive)

Query (molecule): `C=C1C(=O)[C@]23[C@H](O)[C@H]1CC[C@H]2[C@@]12CO[C@]3(O)[C@H](O)[C@@H]1C(C)(C)CC[C@@H]2O` ; field requested: normalized growth
0.962 (inactive)

Can you look up the measured normalized growth of CC(=O)C1CC[C@H]2C3CC[C@H]4C[C@H](O)CC[C@]4(C)C3CC[C@]12C (stereo partly drawn) for me?
0.924 (inactive)

Look at this molecule and give its reported normalized growth. CC(=O)C1CCC2C3CCC4C[C@H](O)CCC4(C)C3C[C@H](O)C12C (stereo partly drawn)
0.923 (inactive)

Data request, read-out normalized growth, for C=C[C@@]1(C)CC(=O)[C@@]2(O)[C@](C)(O1)[C@@H](OC(C)=O)[C@@H](O)C1C(C)(C)CC[C@H](O)[C@@]12C (stereo partly drawn)
0.927 (inactive)

Please report the recorded normalized growth for COC(=O)[C@@H]1OC(=O)C2OC23[C@@]1(C)CCC1[C@]2(C)C(C[C@@H](O)[C@]13C)C(C)(C)[C@H](OC(C)=O)C[C@@H]2OC(C)=O (stereo partly drawn) .
0.913 (inactive)

Value lookup for normalized growth; key = Clc1ccc(C(c2ccccc2Cl)C(Cl)Cl)cc1 (stereo not drawn)
0.894 (inactive)

Fill blank: measured normalized growth of the molecule `CC(=O)O[C@]1(C)CC[C@@]23CC1C(C)(C)[C@@H]2CC[C@H]3C` is ____.
0.958 (inactive)

###

experiment: chemical genetic growth profiling, strain panel (AID 1159580);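 also: tested at 20 µM; growth read once vehicle control cultures reached saturation at 30 °C; 1 = growth at the plate median or of vehicle wells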; conditions: S. cerevisiae deletion strains, growth OD, locus YMR078C, strain ctf18, stronger effect = lower value
Screen size: about 5,500 compounds; about 2,000 (36%) were called active. Not shown: some 18% with an inconclusive outcome. The list shows a part of the results.
For each record, write down the corresponding normalized growth.
Just the number.

Fill in: normalized growth of CC(=O)C1CC[C@H]2C3CC[C@H]4C[C@H](O)CC[C@]4(C)C3CC[C@]12C (some centres undefined) is ___
0.988

Please report the recorded normalized growth for CC(=O)C1CCC2C3CCC4C[C@H](O)CCC4(C)C3C[C@H](O)C12C (some centres undefined) .
0.989

# lookup: normalized growth of `FC(F)(F)c1cccc(N2CCNCC2)c1`
0.986

Please report the recorded normalized growth for CN(C)CCC(c1ccccc1)c1ccccn1 (centres undefined) .
1.01

Look up normalized growth: CCCCCCCCCCCCCC(=O)OC1C(C)C2(O)C(C=C(CO)CC3(O)C(=O)C(C)=CC32)C2C(C)(C)C12OC(C)=O (centres undefined)
0.991

Could you share which normalized growth value was measured for CC(=O)OC1CC(O)C(C)(C)C2CC(=O)C3(C)C(CCC4(C)C(c5ccoc5)OC(=O)C5OC543)C12C (centres undefined) ?
0.988

Name the recorded normalized growth for CC(=O)O[C@H]1C[C@@]2(C)[C@@H](C[C@@H](O)C3[C@]2(C)CC[C@H]2[C@H](C)[C@H](O)CC[C@]32C)/C1=C(/CCC=C(C)C)C(=O)O (some centres undefined) .
1.02

Using the record for `CC(=O)O[C@]1(C)CC[C@@]23CC1C(C)(C)[C@@H]2CC[C@H]3C` , report its normalized growth.
1.01

GET /values?readout=normalized growth&item= C=C[C@@]1(C)CC(=O)[C@@]2(O)[C@](C)(O1)[C@@H](OC(C)=O)[C@@H](O)C1C(C)(C)CC[C@H](O)[C@@]12C (some centres undefined)
0.985

###

assay: chemical genetic growth profiling, strain panel (AID 1159580);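 also: tested at 20 µM; growth read once vehicle control cultures reached saturation at 30 °C; 1 = growth at the plate median or of vehicle wells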; conditions: S. cerevisiae deletion strains, growth OD, locus YDR137W, strain rgp1
The campaign covered roughly 5,500 compounds. About 2,000 (36%) were called active. Another 18% or so got no clear call; they are omitted. No stated cut-off is given here; in the data, active means normalized growth mostly below about 0.91 (no sharp cut-off); inconclusive means no clear call, values can overlap the other calls; inactive means mostly above about 0.92. Some of the results follow. Where a SMILES comes first, the peptide text is derived from it.
Entry note: the call must match one of true (1) for active, false (0) for inactive

Lab log entry: C=NC(C(=O)NC1C(=O)N2C1SC(C)(C)C2C(=O)O)c1ccccc1 (stereo not drawn) — outcome as called in the assay?
false (0)

# fetch the recorded call for C=C[C@@]1(C)CC(=O)[C@@]2(O)[C@](C)(O1)[C@@H](OC(C)=O)[C@@H](O)C1C(C)(C)CC[C@H](O)[C@@]12C (stereo partly drawn) here
false (0)

For `COc1ccc2oc3ccccc3c(=O)c2c1` , which call appears in the assay record?
true (1)

Query: recorded result category for `COc1c(C)c2c(c(O)c1C/C=C(\C)CCC(=O)O)C(=O)OC2` in this test
true (1)

Returns: the outcome recorded for `O=C(O)CCCCCCCC(=O)O` in this assay.
false (0)

Can you look up the reported call for COC(=O)/C(C)=C\CC12OC(C)(C)C3CC(C=C4C(=O)c5c(OC)c6c(c(CC=C(C)C)c5OC431)OC(C)(CCC=C(C)C)C=C6)C2=O (stereo not drawn) for me?
false (0)

What classification did COc1ccc2c(c1)OCC(Cc1ccc(OC)c(OC)c1)C2=O (stereo not drawn) end up with in this test?
false (0)

Each compound tested received a call. Report the one for C[C@]12CCC3c4ccc(O)cc4CCC3C1CCC2=O (stereo partly drawn) .
true (1)

Assay outcome for `CN(C)C(=O)Oc1ccc[n+](C)c1` : what was it?
false (0)

Would you mind telling me which call this test gave O=C(O)C1CCCNC1 (stereo not drawn) ?
false (0)

What outcome does the record of this test show for `CC(=O)N[C@@H](CCC(=O)O)C(=O)O` ?
false (0)

What call does the record list for `Oc1c(Cl)cc(Cl)c(Cl)c1Cc1c(O)c(Cl)cc(Cl)c1Cl` ?
true (1)

Answer briefly: the call reported for Clc1ccc(COC(Cn2ccnc2)c2ccc(Cl)cc2Cl)cc1 (stereo not drawn) in this assay.
true (1)

// outcome(item) with item = `COc1ccc(-c2oc3cc(OC)c(OC)c(OC)c3c(=O)c2OC)cc1`
true (1)

# outcome recorded in this test, key = O=C(O)CCC1NCC2CC1CN1CCCCC21 (stereo not drawn)
false (0)

So what was the verdict on CC1OC(O[C@H]2/C=C/C=C/C=C/C=C/C=C/C=C/C=C/[C@H](C)[C@@H](O)[C@@H](C)[C@H](C)OC(=O)CC(O)CC(O)CCC(O)C(O)CC(O)C[C@]3(O)C[C@H](O)C(C(=O)O)C(C2)O3)C(O)[C@H](N)C1O (stereo partly drawn) in this test?
true (1)

In this assay, the call recorded for Cc1cccc(C)c1NC(=O)C1CCCCN1C (stereo not drawn) was what?
false (0)

What outcome does the record of this test show for `Cc1onc(-c2ccccc2)c1-c1ccc(S(N)(=O)=O)cc1` ?
false (0)

Would you mind telling me which call this test gave Clc1ccc(C(c2ccccc2Cl)C(Cl)Cl)cc1 (stereo not drawn) ?
false (0)

Which outcome was entered for the compound CN[C@@H]1C(OC2[C@H](O[C@H]3[C@H](O)[C@@H](O)[C@H](N=C(N)N)[C@@H](O)[C@@H]3N=C(N)N)OC(C)[C@]2(O)CO)OC(CO)C(O)C1O (stereo partly drawn) in this test?
false (0)

Hello, I am checking results. What call was entered for COc1cc2c(cc1OC)C1(O)C(=O)c3ccc(O)c(C(=O)O)c3OC1CO2 (stereo not drawn) ?
false (0)

Given `COP(=S)(OC)Oc1ccc([N+](=O)[O-])cc1` , state the outcome it received in this test.
false (0)

Returns: the outcome recorded for CC(=O)O[C@H]1C[C@@]2(C)[C@@H](C[C@@H](O)C3[C@]2(C)CC[C@H]2[C@H](C)[C@H](O)CC[C@]32C)/C1=C(/CCC=C(C)C)C(=O)O (stereo partly drawn) in this assay.
false (0)

Per the assay record, what outcome was assigned to `COc1ccc(-c2oc3cc(OC)c(OC)c(OC)c3c(=O)c2OC)cc1OC` ?
false (0)

State the result this test recorded for `CN1CCC[C@@H]1CCO[C@](C)(c1ccccc1)c1ccc(Cl)cc1` .
true (1)

For this compound, state the assay outcome: `Clc1ccc(CO/N=C(/Cn2ccnc2)c2ccc(Cl)cc2Cl)c(Cl)c1`
true (1)

Name the outcome recorded for CC(=O)N[C@@H](CC(=O)O)C(=O)N[C@@H](CCC(=O)O)C(=O)O (Ac-Asp-Glu-OH) in the assay.
false (0)

I'd appreciate the recorded outcome for Clc1ccc(COC(Cn2ccnc2)c2ccc(Cl)cc2Cl)c(Cl)c1 (stereo not drawn) from this test.
true (1)

For `NCCCCCC(=O)O` , which call appears in the assay record?
false (0)

Assay outcome for CC(=O)Oc1c2c(c(CC=C(C)C)c3c1C(=O)C1=C[C@@H]4CC5C(C)(C)OC(C/C=C(\C)C(=O)O)(C4=O)[C@@]15O3)OC(C)(CCC=C(C)C)C=C2 (stereo partly drawn) : what was it?
true (1)

Outcome? `C[C@H]1C[C@@H](O)[C@]2(O)[C@@]13CC(=O)OC[C@@]2(C)[C@](C)(O)C(=O)C3`
false (0)

Please share the test call associated with CCCCC(=O)O[C@]1(C(=O)CO)CCC2C3CCC4=CC(=O)CC[C@]4(C)C3[C@@H](O)C[C@@]21C (stereo partly drawn) .
false (0)

For `CC(=O)OC/C=C(\C)CC/C=C(\C)CC/C=C(\C)CC/C=C(\C)CC/C=C(\C)CC/C=C(\C)CC/C=C(\C)CC/C=C(\C)CCC=C(C)C` , which call appears in the assay record?
false (0)

Could you please tell me the result logged for COc1ccc2nc(S(=O)Cc3ncc(C)c(OC)c3C)[nH]c2c1 (stereo not drawn) in this assay?
false (0)

Hey, what did the test say about `O=c1oc2ccccc2cc1O` ?
false (0)

Check the results log: what was the call for COC1C=CC23c4cc5c(cc4CN(CC2O)[C@@H]3C1)OCO5 (stereo partly drawn) ?
false (0)

GET /call?item= `CC(=O)O[C@]1(C)CC[C@@]23CC1C(C)(C)[C@@H]2CC[C@H]3C` returns the recorded outcome of this test.
false (0)

Called result for NCC[C@@H](O)C(=O)N[C@@H]1C[C@H](N)[C@@H](O[C@H]2O[C@H](CN)[C@@H](O)[C@H](O)[C@H]2O)[C@H](O)[C@H]1O[C@H]1O[C@H](CO)[C@@H](O)[C@H](N)C1O (stereo partly drawn)
false (0)
